assay: 5-day cytotoxicity assay with Cell Titer Glo readout, Expi293F; format: cell-based; conditions: human; Expi293F, 5-day, Cell Titer Glo; read-out: CC50
reported-metric: CC50 at 5 day

input: I am curious: what CC50 at 5 day value has been reported for "Cc1nnc(C(=O)NC(C)(C)c2nc(C(=O)NCc3ccc(F)cc3)c(O)c(=O)n2C)o1" ?
output: > 100 µM

====

assay: 5-day cytotoxicity assay with Cell Titer Glo readout, Expi293F; type: cell-based; details: human
I'd appreciate it if you could supply CC50 at 5 day values for the items below.
Answers are plain numbers, in µM.

molecule	CC50 at 5 day / µM
O=C(NCc1c(F)cc(F)cc1F)c1cn2c(c(O)c1=O)C(=O)N1[C@H]3CC[C@H](C3)O[C@@H]1C2 [BIC, bictegravir]	46

Go through the list and state CC50 at 5 day for each entry.
1. C[C@@H]1CCO[C@H]2Cn3cc(C(=O)NCc4ccc(F)cc4F)c(=O)c(O)c3C(=O)N12 [DTG, dolutegravir]
2. COc1cc2c(cc1Cc1cccc(Cl)c1F)c(=O)c(C(=O)O)cn2[C@H](CO)C(C)C [EVG, elvitegravir]

output:
53.6
32.5

====

assay: 5-day cytotoxicity assay with Cell Titer Glo readout, HUH7; type: cell-based; conditions: human
Label key: Y means CC50 at 5 day under 30 µM; N means CC50 at 5 day of 30 µM or more.

Please review the entries below; each comes with its answer.
compound-smiles	class
COc1ccc(C[C@H](N)C(=O)N[C@H]2[C@@H](O)[C@H](n3cnc4c(N(C)C)ncnc43)O[C@@H]2CO)cc1	Y
C[C@H]1CO[C@@H]2Cn3cc(C(=O)NCc4ccc(F)cc4F)c(=O)c(O)c3C(=O)N12	Y
COc1cc2c(cc1Cc1cccc(Cl)c1F)c(=O)c(C(=O)O)cn2[C@H](CO)C(C)C	Y
O=C(NCc1c(F)cc(F)cc1F)c1cn2c(c(O)c1=O)C(=O)N1[C@H]3CC[C@H](C3)O[C@@H]1C2	N
O=C(/C=C(\O)c1nnn[nH]1)c1c[nH]c2ccc(Cl)cc12	N

input: Is CC50 at 5 day of "C[C@@H]1CCO[C@H]2Cn3cc(C(=O)NCc4ccc(F)cc4F)c(=O)c(O)c3C(=O)N12" strictly below 30 µM?
output: Y

====

Test: 5-day cytotoxicity assay with Cell Titer Glo readout, GALHEPG2
Type: cell-based
Conditions: human; GALHEPG2, 5-day, Cell Titer Glo; read-out: CC50
From the text: Supplemental Table S2. CC50 values for INSTIs in 5- day cytotoxicity as says with Cell Titer Expi293F GALPC3 GALHEP HUH7 MRC5 MT4 PBMC PBMC Kidney Prostate Hepatoma Hepatoma Lung T-cell line Primary Primary (embryonic) cancer cell cell line cell line fibroblast cells
reported-metric: CC50 at 5 day

input: Which CC50 at 5 day is reported for this molecule? "Cc1nnc(C(=O)NC(C)(C)c2nc(C(=O)NCc3ccc(F)cc3)c(O)c(=O)n2C)o1"
output: > 44.4 µM

====

experiment: 5-day cytotoxicity assay with Cell Titer Glo readout, GALPC3; type: cell-based; settings: human
reported-metric: CC50 at 5 day

compound	CC50 at 5 day
O=C(NCc1c(F)cc(F)cc1F)c1cn2c(c(O)c1=O)C(=O)N1[C@H]3CC[C@H](C3)O[C@@H]1C2 [BIC, bictegravir]	> 44.4 µM
C[C@H]1CO[C@@H]2Cn3cc(C(=O)NCc4ccc(F)cc4F)c(=O)c(O)c3C(=O)N12 [CAB, cabotegravir]	> 44.4 µM
O=C(/C=C(\O)c1nnn[nH]1)c1c[nH]c2ccc(Cl)cc12 [p8, 5-CITEP]	> 44.4 µM
COc1cc2c(cc1Cc1cccc(Cl)c1F)c(=O)c(C(=O)O)cn2[C@H](CO)C(C)C [EVG, elvitegravir]	20.8 µM
C[C@@H]1CCO[C@H]2Cn3cc(C(=O)NCc4ccc(F)cc4F)c(=O)c(O)c3C(=O)N12 [DTG, dolutegravir]	> 44.4 µM

Proceeding to the next compound to report its CC50 at 5 day.
input: So what's the measured CC50 at 5 day for this one? COc1ccc(C[C@H](N)C(=O)N[C@H]2[C@@H](O)[C@H](n3cnc4c(N(C)C)ncnc43)O[C@@H]2CO)cc1 [Puromycin]
output: 0.39 µM

====

system: PBMC primary cells; assay: 5-day cytotoxicity assay with Cell Titer Glo readout, PBMC; format: cell-based; settings: 5 day
Lab note: anything with CC50 below 20 µM is marked Satisfied; values at 20 µM or higher are marked Not satisfied.

compound-smiles	class
COc1cc2c(cc1Cc1cccc(Cl)c1F)c(=O)c(C(=O)O)cn2[C@H](CO)C(C)C	Satisfied
O=C(NCc1c(F)cc(F)cc1F)c1cn2c(c(O)c1=O)C(=O)N1[C@H]3CC[C@H](C3)O[C@@H]1C2	Not satisfied
O=C(/C=C(\O)c1nnn[nH]1)c1c[nH]c2ccc(Cl)cc12	Not satisfied

input: Field: below-cutoff. Rule: recorded CC50 strictly less than 20 µM. Subject: "C[C@@H]1CCO[C@H]2Cn3cc(C(=O)NCc4ccc(F)cc4F)c(=O)c(O)c3C(=O)N12"
output: Satisfied

input: Lab log: compare recorded CC50 with 20 µM; is it strictly lower for "C[C@H]1CO[C@@H]2Cn3cc(C(=O)NCc4ccc(F)cc4F)c(=O)c(O)c3C(=O)N12" ?
output: Not satisfied

input: For "COc1ccc(C[C@H](N)C(=O)N[C@H]2[C@@H](O)[C@H](n3cnc4c(N(C)C)ncnc43)O[C@@H]2CO)cc1" , is the recorded CC50 below the cut-off of 20 µM?
output: Satisfied

====

Test system: PBMC primary cells
Test: 5-day cytotoxicity assay with Cell Titer Glo readout, PBMC
Assay type: cell-based
Conditions: PBMC Lot2, 5-day, Cell Titer Glo; read-out: CC50
Excerpt: Supplemental Table S2. CC50 values for INSTIs in 5- day cytotoxicity as says with Cell Titer Expi293F GALPC3 GALHEP HUH7 MRC5 MT4 PBMC PBMC Kidney Prostate Hepatoma Hepatoma Lung T-cell line Primary Primary (embryonic) cancer cell cell line cell line fibroblast cells
reported-metric: CC50

input: Under PBMC primary cells: CC50 value of Cc1nnc(C(=O)NC(C)(C)c2nc(C(=O)NCc3ccc(F)cc3)c(O)c(=O)n2C)o1 [RAL, raltegravir] ?
output: > 44.3 µM

====

Target: recombinant human core RAG1 (AA387-1011)/core RAG2 (AA1-387) in the presence of HMGB1 (Homo sapiens, UniProt P15918+P55895)
Construct: HMGB1 in E. coli BL21DE3
Sequence (P15918 387-1011): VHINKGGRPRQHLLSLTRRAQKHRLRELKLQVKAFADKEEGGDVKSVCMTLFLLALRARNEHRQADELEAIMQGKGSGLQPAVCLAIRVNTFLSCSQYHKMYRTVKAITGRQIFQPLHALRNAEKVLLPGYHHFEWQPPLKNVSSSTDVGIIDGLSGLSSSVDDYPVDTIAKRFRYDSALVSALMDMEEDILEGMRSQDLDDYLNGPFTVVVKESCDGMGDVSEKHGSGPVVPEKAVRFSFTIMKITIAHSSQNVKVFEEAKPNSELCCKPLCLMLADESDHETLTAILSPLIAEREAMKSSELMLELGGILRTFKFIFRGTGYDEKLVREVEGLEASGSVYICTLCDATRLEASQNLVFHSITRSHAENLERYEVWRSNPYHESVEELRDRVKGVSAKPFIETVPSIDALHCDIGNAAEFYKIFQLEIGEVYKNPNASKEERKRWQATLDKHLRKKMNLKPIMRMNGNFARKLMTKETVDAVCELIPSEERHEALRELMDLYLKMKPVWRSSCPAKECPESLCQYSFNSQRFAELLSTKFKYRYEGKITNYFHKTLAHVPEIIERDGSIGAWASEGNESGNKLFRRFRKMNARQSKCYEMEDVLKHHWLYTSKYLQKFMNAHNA
Sequence (P55895 1-387): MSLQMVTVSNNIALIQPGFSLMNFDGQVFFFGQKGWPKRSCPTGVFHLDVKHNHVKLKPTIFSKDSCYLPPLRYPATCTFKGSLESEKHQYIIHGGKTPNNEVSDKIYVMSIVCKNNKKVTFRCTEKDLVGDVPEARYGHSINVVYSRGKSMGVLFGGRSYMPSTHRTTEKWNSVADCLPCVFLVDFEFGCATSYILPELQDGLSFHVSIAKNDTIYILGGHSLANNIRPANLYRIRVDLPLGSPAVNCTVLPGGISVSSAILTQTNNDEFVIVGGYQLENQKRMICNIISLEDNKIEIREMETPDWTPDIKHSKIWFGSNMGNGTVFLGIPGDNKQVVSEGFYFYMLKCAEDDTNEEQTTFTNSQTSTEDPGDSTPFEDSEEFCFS
Experiment: Biochemical RAG DNA cleavage assay (gel-based, dsDNA 12RSS/23RSS substrate)
Settings: 25 nM RAG1-RAG2, 575 nM HMGB1, 10 nM dsDNA, 5 mM MgCl2, 1 h 37°C, no serum
reported-metric: IC50

Worked set:
compound-smiles	IC50
Cc1nnc(C(=O)NC(C)(C)c2nc(C(=O)NCc3ccc(F)cc3)c(O)c(=O)n2C)o1	> 10 µM
Cc1ccc(C(=O)Nc2ccc(S(=O)(=O)O)c3cc(S(=O)(=O)O)cc(S(=O)(=O)O)c23)cc1NC(=O)c1cccc(NC(=O)Nc2cccc(C(=O)Nc3cc(C(=O)Nc4ccc(S(=O)(=O)O)c5cc(S(=O)(=O)O)cc(S(=O)(=O)O)c45)ccc3C)c2)c1	4.5 µM
C[C@@H]1CCO[C@H]2Cn3cc(C(=O)NCc4ccc(F)cc4F)c(=O)c(O)c3C(=O)N12	> 0.5 µM
C[C@H]1CO[C@@H]2Cn3cc(C(=O)NCc4ccc(F)cc4F)c(=O)c(O)c3C(=O)N12	> 0.5 µM
COc1cc2c(cc1Cc1cccc(Cl)c1F)c(=O)c(C(=O)O)cn2[C@H](CO)C(C)C	> 0.5 µM

Go through the list and state IC50 for each entry.
1. O=C(NCc1c(F)cc(F)cc1F)c1cn2c(c(O)c1=O)C(=O)N1[C@H]3CC[C@H](C3)O[C@@H]1C2
2. O=C(/C=C(\O)c1nnn[nH]1)c1c[nH]c2ccc(Cl)cc12

output:
1. > 0.5 µM
2. 58.2 µM
